TARGET SYSTEM: human TYK2 (JH2domain-pseudokinase) (Homo sapiens (Human), UniProt P29597)
Sequence (P29597 556-888): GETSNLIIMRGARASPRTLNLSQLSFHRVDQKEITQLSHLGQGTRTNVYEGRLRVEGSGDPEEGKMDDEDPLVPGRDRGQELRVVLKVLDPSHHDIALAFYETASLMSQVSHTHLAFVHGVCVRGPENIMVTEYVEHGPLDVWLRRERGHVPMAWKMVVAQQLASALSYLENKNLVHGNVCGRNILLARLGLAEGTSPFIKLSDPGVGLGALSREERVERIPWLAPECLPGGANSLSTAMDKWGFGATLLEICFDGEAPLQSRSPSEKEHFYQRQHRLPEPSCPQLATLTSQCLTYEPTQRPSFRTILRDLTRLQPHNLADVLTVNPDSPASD
TEST SUMMARY: TYK2 JH2 Domain Binding Assay (KINOMEscan)
pKd: −log10 of the molar value.
Parameter: pKd. Scope: all listed entries.

COMPOUND	TARGET SYSTEM	MEAS VALUE
CNc1cc(Nc2cccn(-c3cc(C)on3)c2=O)nc2c(C(=O)N[C@H]3C[C@H]3F)cnn12 [I-161]	human TYK2 (JH2domain-pseudokinase) (Homo sapiens (Human), UniProt P29597)	> 9.70

Fill in: pKd of CNc1cc(Nc2cccn([C@H]3CCCC[C@H]3OC)c2=O)nc2c(C(=O)NCC(C)(C)CO)cnn12 [I-1046] is ___
> 9.70

Fill in: pKd of CNc1cc(Nc2cccn(-c3cnc(C)o3)c2=O)nc2c(C(=O)NC3CC3)cnn12 [I-717] is ___
> 9.70

Fill in: pKd of CNc1cc(Nc2cccn(-c3ncc(C)s3)c2=O)nc2c(C(=O)NC3CCC3)cnn12 [I-263] is ___
> 9.70
